# Target system: human thrombin (Homo sapiens, UniProt P00734)
# Construct: bovine trypsin, human thrombin
# Format: biochemical
# Measurement conditions: Table II; 0.07 μM thrombin, 0.25-42 μM inhibitor, 80 mM Hepes pH 7.5, 428 mM NaCl, 8% DMSO, 25° C.; NI = no inhibition
So I've got a bunch of compounds here, and I need their kobs /[I] human thrombin values.

Study these solved cases before continuing.
| Compound | kobs /[I] human thrombin |
| --- | --- |
| Cl.N=C(N)c1ccc(C(NC(=O)OCc2ccccc2)P(=O)(Oc2ccc(Cl)cc2)Oc2ccc(Cl)cc2)cc1 (stereo not shown) | 9,300 ± 210 M^-1 s^-1 |
| CC(NC(=O)OCc1ccccc1)C(=O)NC(C)C(=O)NC(C)C(=O)NC(c1ccc(C(=N)N)cc1)P(=O)(Oc1ccccc1)Oc1ccccc1 (mixture of isomers) | 1,290 ± 26 M^-1 s^-1 |
| CC(C)CC(NC(=O)OC(C)(C)C)C(=O)NCC(=O)NC(c1ccc(C(=N)N)cc1)P(=O)(Oc1ccccc1)Oc1ccccc1 (mixture of isomers) | 1,187 ± 76 M^-1 s^-1 |

Qu. Which kobs /[I] human thrombin is reported for this compound? CC(C)(C)OC(=O)NC(Cc1ccccc1)C(=O)NCC(=O)NC(c1ccc(C(=N)N)cc1)P(=O)(Oc1ccccc1)Oc1ccccc1 (mixture of isomers)
Ans. 2,225 ± 106 M^-1 s^-1
